# ASSAY_SYSTEM: MAO-A (Homo sapiens)
# Sequence (P21397 whole entry): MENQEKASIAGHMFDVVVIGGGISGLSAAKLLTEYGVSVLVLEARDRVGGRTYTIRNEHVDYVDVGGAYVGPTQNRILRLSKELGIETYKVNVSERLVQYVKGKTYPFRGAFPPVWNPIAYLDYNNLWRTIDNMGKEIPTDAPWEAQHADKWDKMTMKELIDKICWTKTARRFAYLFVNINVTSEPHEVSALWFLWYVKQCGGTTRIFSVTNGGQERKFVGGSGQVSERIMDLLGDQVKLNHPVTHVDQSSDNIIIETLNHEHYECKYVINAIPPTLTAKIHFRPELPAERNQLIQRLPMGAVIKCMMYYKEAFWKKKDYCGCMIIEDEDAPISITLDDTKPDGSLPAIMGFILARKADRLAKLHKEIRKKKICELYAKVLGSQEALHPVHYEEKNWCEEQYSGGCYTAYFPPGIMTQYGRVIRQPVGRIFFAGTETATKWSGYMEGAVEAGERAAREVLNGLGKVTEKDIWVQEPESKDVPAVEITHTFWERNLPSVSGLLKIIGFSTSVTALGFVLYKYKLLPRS
PROPERTY_MEASURED: pIC50
Value format note: pIC50 is -log10 of concentration (mol/L); just state the number.

Asked: Requested field: pIC50. Item: CNC(=O)c1ccc2c(c1)S(=O)(=O)c1ccccc1C2=O
Given back: 7.30
